Data origin, for the record: paper PMC12207370

Target: biotinylated CD59 (Homo sapiens)
Construct: Recombinant soluble human CD59 with an additional C-terminal cysteine residue
Sequence (P13987 26-102 limits assumed): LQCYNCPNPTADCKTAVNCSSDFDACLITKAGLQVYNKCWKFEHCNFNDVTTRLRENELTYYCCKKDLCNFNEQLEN
Test: mRNA-display cyclic peptide screen against CD59-biotin, NGS abundance after 6th selection round
Conditions: percentage of the pool averaged across the two sequencing samples, sheet R6
OBSERVATION_TYPE: Percentage Average (%)
# value in %; strip the unit string

Lab request: please report Percentage Average under test system biotinylated CD59 (Homo sapiens) for FATGNRDHTRG
0.020

And then CFSRRSTSSQST , what is it?
0.018

And then HCWVRGSRNYA , what is it?
0.029

And then TFRKRLTATCGT , what is it?
0.022

And then HCWARGSRNYT , what is it?
0.038

And then FVTGSRDHTRG , what is it?
0.063

And then LQPPDRSCLPKI , what is it?
0.029

And then QWNRWYGMDER , what is it?
0.091

And then SAWGNRQIQYF , what is it?
0.027

And then SSFREYNHLPCT , what is it?
0.646

====

Target: biotinylated CD59 (Homo sapiens)
Construct: Recombinant soluble human CD59 with an additional C-terminal cysteine residue
Sequence (P13987 26-102 limits assumed): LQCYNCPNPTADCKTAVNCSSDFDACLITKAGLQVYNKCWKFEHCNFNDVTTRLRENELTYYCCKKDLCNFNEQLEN
Experiment: mRNA-display cyclic peptide screen against CD59-biotin, NGS abundance after 6th selection round
Settings: counts normalised by total counts of sample Seq II; percentage of the pool, sheet R6
Description: To discover novel non‐protein CD59 ligands, we screened a library of 10^12 cyclic peptides against CD59 using mRNA‐display (Figure 2a).^[ [23], [24], [25], [26], [27], [28], [29] ^] Briefly, an mRNA library was designed in which the start codon was reprogrammed from Met to N‐chloroacetyl‐D‐Tyr (ClAc‐D‐Tyr), followed by 10–12 randomly encoded natural amino acids, a Cys residue, a (GlySer)3 linker, and a stop codon. […]
OBSERVATION_TYPE: Percentage Seq II (%)
# value in %; strip the unit string

Lab request: please report Percentage Seq II under test system biotinylated CD59 (Homo sapiens) for WILGSRWWTRS
0.111

And then CFARRLSSSHSL , what is it?
0.155

And then GRLNECHVIWS , what is it?
0.037

And then CYTAGSASWSRG , what is it?
0.680

And then SSYRELAHLSC , what is it?
0.125

And then CLDKWGRLWS , what is it?
0.754

And then FVFGNRHFRTE , what is it?
0.492

And then CFALRLSQTSV , what is it?
0.042

And then CFSHRRLEYGV , what is it?
0.046

And then VAHGSKNSQFW , what is it?
0.325

And then CAWGNRYIAYY , what is it?
0.067

And then WVYGSRYWRSI , what is it?
0.014

And then FVTGSRDHTRG , what is it?
0.053

And then CFAGRLTIGAV , what is it?
0.056

And then RIGTSTCPFKFS , what is it?
0.023

And then STYNDFFRVPC , what is it?
0.200

And then CFNSRLHIGAV , what is it?
0.058

And then SAWGNRQIQY+ , what is it?
0.016

And then CLRRSYEATSI , what is it?
0.021

And then GYLNECHTLYTL , what is it?
0.028
